Recorded measurements of pIC50, one per entry
- EXPERIMENTAL_TARGET: FAK (Homo sapiens, UniProt Q05397)
- Construct: endogenous in cells
- Sequence (Q05397 whole entry): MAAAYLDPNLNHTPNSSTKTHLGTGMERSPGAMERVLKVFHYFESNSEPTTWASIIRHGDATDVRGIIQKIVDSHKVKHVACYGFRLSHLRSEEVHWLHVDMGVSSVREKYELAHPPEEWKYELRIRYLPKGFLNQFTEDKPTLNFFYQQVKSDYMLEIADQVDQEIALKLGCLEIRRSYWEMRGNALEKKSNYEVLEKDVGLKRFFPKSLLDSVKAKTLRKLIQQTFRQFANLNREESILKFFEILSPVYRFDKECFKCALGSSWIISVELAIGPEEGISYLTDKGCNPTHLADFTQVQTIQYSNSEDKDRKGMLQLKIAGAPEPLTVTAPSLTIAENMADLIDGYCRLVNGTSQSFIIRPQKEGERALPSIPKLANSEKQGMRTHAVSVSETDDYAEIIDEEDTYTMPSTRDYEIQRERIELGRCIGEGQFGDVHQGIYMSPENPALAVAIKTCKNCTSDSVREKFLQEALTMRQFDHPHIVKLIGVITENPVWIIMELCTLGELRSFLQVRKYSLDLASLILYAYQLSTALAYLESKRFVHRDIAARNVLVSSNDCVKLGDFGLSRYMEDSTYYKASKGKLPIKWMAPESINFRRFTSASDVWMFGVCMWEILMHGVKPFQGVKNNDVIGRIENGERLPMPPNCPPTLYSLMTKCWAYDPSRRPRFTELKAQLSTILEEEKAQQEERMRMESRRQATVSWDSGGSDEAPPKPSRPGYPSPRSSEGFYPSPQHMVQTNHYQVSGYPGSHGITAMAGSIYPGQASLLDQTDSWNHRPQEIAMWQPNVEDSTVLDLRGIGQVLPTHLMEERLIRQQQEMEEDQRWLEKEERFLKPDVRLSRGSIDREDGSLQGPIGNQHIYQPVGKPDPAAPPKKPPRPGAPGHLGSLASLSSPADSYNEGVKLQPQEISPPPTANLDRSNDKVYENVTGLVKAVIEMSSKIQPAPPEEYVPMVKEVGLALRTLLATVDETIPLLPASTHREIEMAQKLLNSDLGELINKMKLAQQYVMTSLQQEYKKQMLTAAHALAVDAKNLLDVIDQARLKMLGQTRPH
- TEST_NAME: P397Y-FAK Inhibition MSD Platform Cellular Biomarker Assay
- ASSAY_CONTEXT: MDA-231-LNA cells, treated for 1 hour; pFAK-397 levels
Formally, pIC50 is defined as -log10 of the concentration c, with c in mol/L.

{"COMPOUND": "CCC(C(N)=O)c1ccccc1CCc1nc(Nc2ccc(C3CCNCC3)cc2)ncc1C(F)(F)F (racemic)", "EXPERIMENTAL_TARGET": "FAK (Homo sapiens, UniProt Q05397)", "MEASURED_RESULT": 5.93}

Return value of pIC50 for input CC(C(N)=O)c1ccccc1CCc1nc(Nc2cnn(C3CCNCC3)c2)ncc1C(F)(F)F (racemic) , no commentary.
6.29

Provide one value: measured pIC50 of CC(C(N)=O)c1ccccc1CCc1nc(Nc2cnn(C)c2)ncc1C(F)(F)F (stereo not shown)
6.94

###

- EXPERIMENTAL_TARGET: VEGFR3 cytoplasmic domain (Homo sapiens)
- Sequence (P35916 798-1298 isoform P35916-1): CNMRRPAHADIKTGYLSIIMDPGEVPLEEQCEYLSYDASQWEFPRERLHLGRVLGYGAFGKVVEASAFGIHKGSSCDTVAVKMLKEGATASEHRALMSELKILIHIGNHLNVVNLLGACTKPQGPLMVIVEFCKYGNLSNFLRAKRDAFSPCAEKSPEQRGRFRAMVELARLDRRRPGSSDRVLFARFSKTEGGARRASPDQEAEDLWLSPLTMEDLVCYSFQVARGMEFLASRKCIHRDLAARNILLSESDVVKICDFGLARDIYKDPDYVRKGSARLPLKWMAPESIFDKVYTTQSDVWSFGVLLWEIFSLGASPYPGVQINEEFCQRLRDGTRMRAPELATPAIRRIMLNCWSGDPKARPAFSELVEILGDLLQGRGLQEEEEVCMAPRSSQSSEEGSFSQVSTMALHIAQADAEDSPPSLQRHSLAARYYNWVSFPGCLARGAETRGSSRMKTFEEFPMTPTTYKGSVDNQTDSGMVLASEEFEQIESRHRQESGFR
- TEST_NAME: VEGFR3 Biochemical Assay (AlphaScreen)
- ASSAY_CONTEXT: GST-fusion enzyme, 500 μM ATP, 90 minutes at 30 degree Celsius (modified form in some cases: Hexa-His-fusion enzyme, 1 μM ATP); read-out: IC50
We begin with a simple list: items and their reported pIC50.
When answering, recall that pIC50 equals minus log10 of the concentration in mol/L, and write that number alone.

{"COMPOUND": "Cc1cnc(Nc2cnn(C3CCN(C)CC3)c2)nc1CCc1ccccc1C1(C(N)=O)CC1", "EXPERIMENTAL_TARGET": "VEGFR3 cytoplasmic domain (Homo sapiens)", "MEASURED_RESULT": 7.92}
{"COMPOUND": "NC(=O)C1(c2ccccc2CCc2nc(Nc3ccc(C4CCNCC4)cc3)ncc2Cl)CC1", "EXPERIMENTAL_TARGET": "VEGFR3 cytoplasmic domain (Homo sapiens)", "MEASURED_RESULT": 8.00}

Supply measured pIC50 of NC(=O)C1(c2ccccc2CCc2nc(Nc3cnn(C4CNC4)c3)ncc2Cl)CC1 in your reply.
8.22

Specify pIC50 for Cn1cc(Nc2ncc(Cl)c(CCc3ccccc3C3(C(N)=O)CC3)n2)cn1 and stop.
8.40

Find the measured pIC50 of NC(=O)C1(c2ccccc2CCc2nc(Nc3cccnc3)ncc2Cl)CC1 and report it.
8.10

Provide only the value of recorded pIC50 for CC(C(N)=O)c1ccccc1CCc1nc(Nc2cn[nH]c2)ncc1C(F)(F)F (centres unmarked)
7.77

State its pIC50 for this compound: CC(=O)c1ccc(Nc2ncc(Cl)c(CCc3ccccc3C3(C(N)=O)CC3)n2)cn1
7.36

Give the value of pIC50 reported for the following: CC(NC(=O)OC(C)(C)C)c1ccc(Nc2ncc(Cl)c(CCc3ccccc3C3(C(N)=O)CC3)n2)cc1 (centres unmarked)
8.70

Fill in pIC50 for record Cc1cnc(Nc2cn[nH]c2)nc1CCc1ccccc1C1(C(N)=O)CC1
7.89

###

Below, each entry is listed alongside its reported log10 of IC50.
- EXPERIMENTAL_TARGET: VEGFR3 cytoplasmic domain (Homo sapiens)
- TEST_NAME: VEGFR3 Biochemical Assay (AlphaScreen)
- ASSAY_CONTEXT: GST-fusion enzyme, 500 μM ATP, 90 minutes at 30 degree Celsius (modified form in some cases: Hexa-His-fusion enzyme, 1 μM ATP); read-out: IC50
All values: log10 IC50 [nM].

Give log10 of IC50 for CC(=O)NC(C)c1ccc(Nc2ncc(C(F)(F)F)c(CCc3ccccc3C3(C(N)=O)CC3)n2)cc1 (stereo not shown) [Compound 71]
1.00

Item Cc1cnc(Nc2ccc(C3CCN(C)CC3)nc2)nc1CCc1ccccc1C1(C(N)=O)CC1 [Compound 49] : provide log10 of IC50
1.36

Give recorded log10 of IC50. CC(N)c1ccc(Nc2ncc(C(F)(F)F)c(CCc3ccccc3C3(C(N)=O)CC3)n2)cc1 (stereo not shown) [Compound 70A]
1.34

For the compound CC(C)n1cc(Nc2ncc(Cl)c(CCc3ccccc3C3(C(N)=O)CC3)n2)cn1 [Compound 30] , report log10 of IC50.
0.60

Fill in log10 of IC50 for record NC(=O)C1(c2ccccc2CCc2nc(Nc3cnn(C4CCNC4)c3)ncc2Cl)CC1 (stereo not shown) [Compound 20]
0.85

Query log10 of IC50 for NC(=O)C1(c2ccccc2CCc2nc(Nc3ccc(C4CCNCC4)nc3)ncc2Cl)CC1 [Compound 15]
1.04

###

- EXPERIMENTAL_TARGET: VEGFR3 cytoplasmic domain (Homo sapiens)
- TEST_NAME: VEGFR3 Biochemical Assay (AlphaScreen)
- ASSAY_CONTEXT: IC50 (nM), GST-fusion enzyme, 500 μM ATP, 90 minutes at 30 degree Celsius (modified form in some cases: Hexa-His-fusion enzyme, 1 μM ATP)
RECORDED_METRIC: IC50 (nM)
Give the value, in units of nM, as a plain number.

Answer with reported IC50 of NC(=O)C1(c2ccccc2CCc2nc(Nc3ccccc3)ncc2Cl)CC1
11

###

- EXPERIMENTAL_TARGET: VEGFR2 (Homo sapiens, UniProt P35968)
- Sequence (P35968 20-1356): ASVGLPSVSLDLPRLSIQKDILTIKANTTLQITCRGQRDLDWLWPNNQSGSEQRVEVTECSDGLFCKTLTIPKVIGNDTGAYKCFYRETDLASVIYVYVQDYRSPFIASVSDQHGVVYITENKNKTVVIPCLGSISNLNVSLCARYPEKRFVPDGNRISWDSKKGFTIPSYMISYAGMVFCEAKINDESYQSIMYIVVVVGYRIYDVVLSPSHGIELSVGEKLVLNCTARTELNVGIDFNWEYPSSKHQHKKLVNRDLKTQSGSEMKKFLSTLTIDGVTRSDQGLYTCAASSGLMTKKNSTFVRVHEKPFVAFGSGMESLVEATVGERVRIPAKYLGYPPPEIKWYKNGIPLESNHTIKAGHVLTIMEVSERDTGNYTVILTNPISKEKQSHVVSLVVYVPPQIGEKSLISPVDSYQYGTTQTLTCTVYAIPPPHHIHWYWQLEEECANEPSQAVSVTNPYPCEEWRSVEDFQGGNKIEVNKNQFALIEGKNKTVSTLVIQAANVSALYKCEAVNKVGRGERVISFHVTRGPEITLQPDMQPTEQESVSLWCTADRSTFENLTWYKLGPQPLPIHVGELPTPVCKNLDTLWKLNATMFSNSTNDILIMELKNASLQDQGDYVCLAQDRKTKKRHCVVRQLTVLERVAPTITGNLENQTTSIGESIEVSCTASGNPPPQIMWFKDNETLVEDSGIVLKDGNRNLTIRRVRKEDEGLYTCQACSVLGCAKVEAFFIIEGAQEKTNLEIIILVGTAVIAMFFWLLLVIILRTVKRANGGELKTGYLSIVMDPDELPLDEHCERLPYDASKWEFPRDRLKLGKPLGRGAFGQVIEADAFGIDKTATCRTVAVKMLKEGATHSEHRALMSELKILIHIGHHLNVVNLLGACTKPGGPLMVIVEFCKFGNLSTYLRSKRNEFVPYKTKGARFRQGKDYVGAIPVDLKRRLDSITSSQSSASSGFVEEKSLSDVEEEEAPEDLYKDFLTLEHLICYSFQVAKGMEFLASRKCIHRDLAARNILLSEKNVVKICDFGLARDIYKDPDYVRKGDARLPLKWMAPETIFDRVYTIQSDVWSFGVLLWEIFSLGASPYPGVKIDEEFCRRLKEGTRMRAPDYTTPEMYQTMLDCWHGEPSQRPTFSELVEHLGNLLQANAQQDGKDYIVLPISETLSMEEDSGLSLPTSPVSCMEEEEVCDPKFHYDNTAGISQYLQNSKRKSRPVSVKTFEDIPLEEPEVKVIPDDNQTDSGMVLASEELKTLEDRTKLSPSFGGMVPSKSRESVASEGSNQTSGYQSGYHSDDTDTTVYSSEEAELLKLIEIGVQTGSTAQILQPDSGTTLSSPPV
- TEST_NAME: VEGFR2 Phospho ELISA Assay
- ASSAY_CONTEXT: HUVEC, treated for 1 hour, VEGF stimulated; phospho VEGFR2 relative to Total VEGFR2
pIC50: −log10 of the molar value.
Decide using pIC50: a value greater than or equal to 6 is label 1, a smaller one is label 0.

// inclusive: pIC50 at least 6? input: CC(C(N)=O)c1ccccc1CCc1nc(Nc2cnn(C)c2)ncc1Cl (stereo not shown) [Compound 36]
label 0

Check if pIC50 >= 6 (inclusive). Item: CC(C(N)=O)c1ccccc1CCc1nc(Nc2cn[nH]c2)ncc1Cl (stereo not shown) [Compound 35]
label 0

###

- EXPERIMENTAL_TARGET: VEGFR3 cytoplasmic domain (Homo sapiens)
- TEST_NAME: VEGFR3 Biochemical Assay (AlphaScreen)
- ASSAY_CONTEXT: GST-fusion enzyme, 500 μM ATP, 90 minutes at 30 degree Celsius (modified form in some cases: Hexa-His-fusion enzyme, 1 μM ATP); read-out: IC50
We begin with a simple list: items and their reported pIC50.
# pIC50 = -log10(concentration in molar units)

{"MOLECULE": "NC(=O)C1(c2ccccc2CCc2nc(Nc3ccc(C4CCNCC4)nc3)ncc2C(F)(F)F)CC1 [Compound 5]", "MEASURED_RESULT": 7.55}

State, in one line, measured pIC50 of CN1CCC(c2ccc(Nc3ncc(C(F)(F)F)c(CCc4ccccc4C4(C(N)=O)CC4)n3)cc2)CC1
8.05

In one line, give reported pIC50 of the entry NC(=O)C1(c2ccccc2CCc2nc(Nc3cnn(C4CCNCC4)c3)ncc2C(F)(F)F)CC1 .
8.15

For the molecule Cc1cc(Nc2ncc(Cl)c(CCc3ccccc3C3(C(N)=O)CC3)n2)n[nH]1 , report pIC50.
7.33

Provide one value: measured pIC50 of CC(C(N)=O)c1ccccc1CCc1nc(Nc2cnn(C3CCN(C)CC3)c2)ncc1Cl (centres unmarked)
8.05

###

- EXPERIMENTAL_TARGET: VEGFR3 cytoplasmic domain (Homo sapiens)
- TEST_NAME: VEGFR3 Biochemical Assay (AlphaScreen)
- ASSAY_CONTEXT: GST-fusion enzyme, 500 μM ATP, 90 minutes at 30 degree Celsius (modified form in some cases: Hexa-His-fusion enzyme, 1 μM ATP); read-out: IC50
RECORDED_METRIC: IC50 (nM)
Number only, in nM; omit the unit.

Example cases with answers are listed next.
{"MOLECULE": "Cc1cnc(Nc2cnn(C)c2)nc1CCc1ccccc1C1(C(N)=O)CC1", "RECORDED_METRIC": "IC50", "MEASURED_RESULT": 5}
{"MOLECULE": "NC(=O)C1(c2ccccc2CCc2nc(Nc3ccc(C4CCNCC4)nc3)ncc2C(F)(F)F)CC1 [Compound 68]", "RECORDED_METRIC": "IC50", "MEASURED_RESULT": 28}
{"MOLECULE": "NC(=O)C1(c2ccccc2CCc2nc(Nc3ccc(C4CCNCC4)cc3)ncc2C(F)(F)F)CCC1", "RECORDED_METRIC": "IC50", "MEASURED_RESULT": 23}

Shift focus to the following entry.
For the molecule CN1CCC(c2ccc(Nc3ncc(Cl)c(CCc4ccccc4C4(C(N)=O)CC4)n3)cc2)CC1 , report IC50.
10

###

Overview of reported IC50 across a group of compounds:
- EXPERIMENTAL_TARGET: VEGFR3 cytoplasmic domain (Homo sapiens)
- TEST_NAME: VEGFR3 Biochemical Assay (AlphaScreen)
- ASSAY_CONTEXT: GST-fusion enzyme, 500 μM ATP, 90 minutes at 30 degree Celsius (modified form in some cases: Hexa-His-fusion enzyme, 1 μM ATP); read-out: IC50
Please provide the amount together with its unit, number first.

// below: answered compounds
{"COMPOUND": "CN1CCC(n2cc(Nc3ncc(C(F)(F)F)c(CCc4ccccc4C4(C(N)=O)CC4)n3)cn2)CC1", "MEASURED_RESULT": "7 nM"}
{"COMPOUND": "Cc1nn(C)cc1Nc1ncc(Cl)c(CCc2ccccc2C2(C(N)=O)CC2)n1", "MEASURED_RESULT": "12 nM"}

Alright, here's another compound for you.
Param request: IC50 | system VEGFR3 cytoplasmic domain (Homo sapiens) | item Cc1cnc(Nc2cnn(C)c2)nc1CCc1ccccc1C(C)C(N)=O (stereo not drawn) [Compound 51]
15 nM
